Data credit: paper PMC3783656

experimental-system: CK1ε (Homo sapiens, UniProt P49674)
Sequence (P49674 whole entry): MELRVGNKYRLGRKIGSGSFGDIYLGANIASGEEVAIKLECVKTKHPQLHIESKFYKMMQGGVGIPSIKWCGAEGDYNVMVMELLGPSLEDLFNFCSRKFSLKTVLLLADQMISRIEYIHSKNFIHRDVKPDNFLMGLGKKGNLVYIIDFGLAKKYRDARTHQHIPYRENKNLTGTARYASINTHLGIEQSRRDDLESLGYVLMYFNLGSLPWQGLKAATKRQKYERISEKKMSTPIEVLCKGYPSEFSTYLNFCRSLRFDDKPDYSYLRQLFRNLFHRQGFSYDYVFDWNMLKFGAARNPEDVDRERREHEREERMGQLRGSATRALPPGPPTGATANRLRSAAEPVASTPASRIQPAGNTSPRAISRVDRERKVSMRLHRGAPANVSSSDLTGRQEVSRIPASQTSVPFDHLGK
pIC50: −log10 of the molar value.
measurement-type: pIC50

{"sample-smiles": "c1ccc2[nH]c(CNc3nc(N4CCOCC4)nc4c3ncn4-c3ccsc3)nc2c1", "observed": 6.27}

====

experiment-summary: Microsome stability, mouse liver microsomes
settings: mouse, liver microsomes

{"compound": "CCN(CC)CCNC(=O)c1c(C)[nH]c(/C=C2\\C(=O)Nc3ccc(F)cc32)c1C [Sunitinib, sunitinib, reference compound]", "unit-name": "min", "half-life": 21}

====

experiment-summary: Microsome stability, human liver microsomes
settings: human, liver microsomes

{"compound": "CCN(CC)CCNC(=O)c1c(C)[nH]c(/C=C2\\C(=O)Nc3ccc(F)cc32)c1C [Sunitinib, sunitinib, reference compound]", "half-life / min": 54}

====

Examples of molecules with documented pIC50 follow.
experimental-system: UniProt P48730
experiment-summary: CK1δ inhibition, Reaction Biology Corp.
Type: biochemical
settings: read-out: IC50 CK1δ; data obtained by Reaction Biology Corp.
pIC50: −log10 of the molar value.
measurement-type: pIC50

{"sample-smiles": "FC(F)(F)c1ccc2[nH]c(CNc3nc(N4CCOCC4)nc4c3ncn4-c3ccsc3)nc2c1", "experimental-system": "UniProt P48730", "observed": 7.89}
{"sample-smiles": "c1ccc2[nH]c(CNc3nc(N4CCOCC4)nc4c3ncn4-c3ccsc3)nc2c1", "experimental-system": "UniProt P48730", "observed": 6.80}
{"sample-smiles": "O=[N+]([O-])c1ccc2[nH]c(CNc3nc(N4CCOCC4)nc4c3ncn4-c3ccsc3)nc2c1", "experimental-system": "UniProt P48730", "observed": 7.68}
{"sample-smiles": "CS(=O)(=O)c1ccc2[nH]c(CNc3nc(N4CCOCC4)nc4c3ncn4-c3ccsc3)nc2c1", "experimental-system": "UniProt P48730", "observed": 8.00}

====

experiment-summary: Microsome stability, rat liver microsomes
settings: rat, liver microsomes

{"compound": "CCN(CC)CCNC(=O)c1c(C)[nH]c(/C=C2\\C(=O)Nc3ccc(F)cc32)c1C [Sunitinib, sunitinib, reference compound]", "half-life": "21 min"}

====

experimental-system: CK1δ (Homo sapiens, UniProt P48730)
Sequence (P48730 whole entry): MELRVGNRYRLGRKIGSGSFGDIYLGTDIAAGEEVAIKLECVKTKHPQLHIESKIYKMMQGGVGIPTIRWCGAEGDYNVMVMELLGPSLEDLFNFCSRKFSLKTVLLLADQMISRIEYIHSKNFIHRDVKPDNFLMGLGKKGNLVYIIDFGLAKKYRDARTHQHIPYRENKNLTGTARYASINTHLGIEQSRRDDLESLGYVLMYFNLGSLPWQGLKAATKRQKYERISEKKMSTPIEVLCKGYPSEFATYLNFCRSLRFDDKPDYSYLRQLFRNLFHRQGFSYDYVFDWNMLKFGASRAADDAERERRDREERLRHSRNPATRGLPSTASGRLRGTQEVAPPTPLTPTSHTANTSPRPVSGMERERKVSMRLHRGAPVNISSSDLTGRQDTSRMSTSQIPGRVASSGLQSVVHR
experiment-summary: CK1δ inhibition, in-house kinase inhibition assay
Assay type: biochemical
settings: read-out: IC50 CK1δ

{"compound": "NC1CCN(c2nc(NCc3nc4cc(Cl)ccc4[nH]3)c3ncn(-c4ccsc4)c3n2)CC1", "IC50": "119 nM"}
{"compound": "Clc1ccc2[nH]c(CNc3nc(N4CCNCC4)nc4c3ncn4-c3ccsc3)nc2c1", "IC50": "51 nM"}
{"compound": "CC1CN(c2nc(NCc3nc4ccccc4[nH]3)c3ncn(-c4ccsc4)c3n2)CCN1 (centres unmarked)", "IC50": "199 nM"}
{"compound": "O=[N+]([O-])c1cccc2[nH]c(CNc3nc(N4CCOCC4)nc4c3ncn4-c3cc(F)cc(F)c3)nc12", "IC50": "75 nM"}
{"compound": "O=[N+]([O-])c1cccc2[nH]c(CNc3nc(N4CCOCC4)nc4c3ncn4-c3cccc(F)c3)nc12", "IC50": "57 nM"}

====

Examples of compounds with documented pIC50 follow.
experimental-system: UniProtKB P48730
experiment-summary: CK1δ inhibition, Reaction Biology Corp.
Assay type: biochemical
settings: read-out: IC50 CK1δ; data obtained by Reaction Biology Corp.
pIC50: −log10 of the molar value.
measurement-type: pIC50

{"sample-smiles": "c1ccc2[nH]c(CNc3nc(N4CCOCC4)nc4c3ncn4C3CCCC3)nc2c1", "measurement-type": "pIC50", "censoring-qualifier": "=", "observed": 7.24}
{"sample-smiles": "COc1ccc2[nH]c(CNc3nc(N4CCOCC4)nc4c3ncn4-c3ccsc3)nc2c1", "measurement-type": "pIC50", "censoring-qualifier": "=", "observed": 7.77}
{"sample-smiles": "Clc1ccc2[nH]c(CNc3nc(N4CCOCC4)nc4c3ncn4-c3ccoc3)nc2c1", "measurement-type": "pIC50", "censoring-qualifier": "=", "observed": 7.64}
{"sample-smiles": "N#Cc1ccc2[nH]c(CNc3nc(N4CCOCC4)nc4c3ncn4-c3ccsc3)nc2c1", "measurement-type": "pIC50", "censoring-qualifier": "=", "observed": 7.96}
{"sample-smiles": "O=[N+]([O-])c1cccc2[nH]c(CNc3nc(N4CCOCC4)nc4c3ncn4-c3ccoc3)nc12", "measurement-type": "pIC50", "censoring-qualifier": "=", "observed": 7.72}
{"sample-smiles": "FC(F)(F)c1cccc2[nH]c(CNc3nc(N4CCOCC4)nc4c3ncn4-c3ccsc3)nc12", "measurement-type": "pIC50", "censoring-qualifier": "=", "observed": 6.89}
{"sample-smiles": "c1ccc2[nH]c(CNc3nc(N4CCNCC4)nc4c3ncn4-c3ccsc3)nc2c1", "measurement-type": "pIC50", "censoring-qualifier": "=", "observed": 8.52}
{"sample-smiles": "O=[N+]([O-])c1cccc2[nH]c(CNc3nc(N4CCOCC4)nc4c3ncn4-c3ccc(F)cc3)nc12", "measurement-type": "pIC50", "censoring-qualifier": "<", "observed": 6.00}
{"sample-smiles": "Fc1ccc2[nH]c(CNc3nc(N4CCOCC4)nc4c3ncn4-c3ccsc3)nc2c1", "measurement-type": "pIC50", "censoring-qualifier": "=", "observed": 7.30}

====

Examples of compounds with documented pIC50 follow.
experimental-system: CK1δ (Homo sapiens, UniProt P48730)
experiment-summary: CK1δ inhibition, Reaction Biology Corp.
Format: biochemical
settings: read-out: IC50 CK1δ; data obtained by Reaction Biology Corp.
pIC50: −log10 of the molar value.

{"compound": "CS(=O)(=O)c1cccc2[nH]c(CNc3nc(N4CCOCC4)nc4c3ncn4-c3ccsc3)nc12 [SR-2805]", "experimental-system": "CK1δ (Homo sapiens, UniProt P48730)", "pIC50": 7.80}
{"compound": "Clc1ccc2[nH]c(CNc3nc(N4CCOCC4)nc4c3ncn4-c3ccsc3)nc2c1 [SR-1274]", "experimental-system": "CK1δ (Homo sapiens, UniProt P48730)", "pIC50": 6.98}
{"compound": "CN1CCN(c2nc(NCc3nc4ccccc4[nH]3)c3ncn(-c4ccsc4)c3n2)CC1 [SR-1294]", "experimental-system": "CK1δ (Homo sapiens, UniProt P48730)", "pIC50": 7.96}
{"compound": "O=[N+]([O-])c1cccc2[nH]c(CNc3nc(N4CCOCC4)nc4c3ncn4-c3ccsc3)nc12 [SR-1277]", "experimental-system": "CK1δ (Homo sapiens, UniProt P48730)", "pIC50": 7.31}
